# Test system: OVCAR-5 ovarian
# test protocol: NCI-60 one-dose screen, 48 h (100 = growth as untreated, 0 = no growth, -100 = all killed)
# measurement context: 10 µM
This is part of a sample that, as a whole, favours compounds with a hit. Of some 83,000 tested, about 20% had one in any assay.

{"compound": "Cc1ccc(Cl)cc1N1C(=O)CC(Sc2ccccc2N)C1=O (centres undefined)", "growth, %": 105}
{"compound": "CC(=Nc1ccccc1)C1=C(O)C(Cc2cccc(F)c2)NC1=O (centres undefined)", "growth, %": 25.6}
{"compound": "CC(C)COC(=O)COC(=O)OCCOCCOC(=O)OCC(=O)OCC(C)C", "growth, %": 101}
{"compound": "CC(=O)OCC1CCCO1 (centres undefined)", "growth, %": 110}
{"compound": "N#Cc1c(N)sc(=S)c2c1CCCC2", "growth, %": 108}
{"compound": "O=C(CS)Nc1ccc2ccccc2c1", "growth, %": 102}
{"compound": "CC(=O)NCc1cc(C)c(C)cc1C", "growth, %": 95.5}
{"compound": "CC(C)CCOC(=O)c1ccccc1", "growth, %": 105}
{"compound": "O=C(NN=C1CCCCC1)C(=O)NN=C1CCCCC1", "growth, %": 105}
{"compound": "OCc1cccc2ccccc12", "growth, %": 111}
{"compound": "CCN(CC)CCNc1ccc(CO)c2sc3ccccc3c(=O)c12", "growth, %": 53.3}
{"compound": "COC(=O)c1ccccc1Br", "growth, %": 82.2}
{"compound": "Nc1ccccc1C(=O)Nc1ccc(Cl)cc1Cl", "growth, %": 100}
{"compound": "CCC(C)(C)C1CCC(O)CC1 (centres undefined)", "growth, %": 92.5}

----------
# System: SK-MEL-2 melanoma
# test protocol: NCI-60 one-dose screen, 48 h (100 = growth as untreated, 0 = no growth, -100 = all killed)
# measurement context: 10 µM
Compounds without any hit were thinned out: in the full panel of roughly 83,000, 20% have a hit.

{"compound": "CC(=O)Nc1cccc(Cl)c1C", "quantity unit": "%", "growth": 100}
{"compound": "COc1ccc(C(O)c2ccccc2)cc1 (centres undefined)", "quantity unit": "%", "growth": 112}
{"compound": "Cc1ccc(/C(C#N)=C/c2ccc3c(c2)OCO3)cc1", "quantity unit": "%", "growth": 43.3}
{"compound": "O=[N+]([O-])c1cccc(N=Nc2ccc(O)cc2O)c1", "quantity unit": "%", "growth": 79.8}
{"compound": "OCCN(CCO)C(=S)S", "quantity unit": "%", "growth": 121}
{"compound": "COC(=O)Nc1nc2ccc(C(=O)c3ccc(F)cc3)cc2[nH]1", "quantity unit": "%", "growth": -20.1}
{"compound": "Oc1ccc(Cc2ccccc2)c2cccnc12", "quantity unit": "%", "growth": 12.1}
{"compound": "C[N+](C)(C)C(=O)c1ccccc1", "quantity unit": "%", "growth": 98.6}
{"compound": "O=S(=O)(Cc1ccccc1)c1ccccc1", "quantity unit": "%", "growth": 114}
{"compound": "O=C(O)C(O)c1ccccc1 (centres undefined)", "quantity unit": "%", "growth": 104}
{"compound": "N#CCCN(CCCN1CCOCC1)CN1C(=O)c2ccccc2C1=O", "quantity unit": "%", "growth": 118}
{"compound": "CC(=O)/C(Cc1ccccc1)=N/O", "quantity unit": "%", "growth": 99.7}
{"compound": "CC(=O)OCC1CCCO1 (centres undefined)", "quantity unit": "%", "growth": 106}
{"compound": "CC1NC(=O)NC1CCCCCC(=O)O (centres undefined)", "quantity unit": "%", "growth": 103}

// provenance: PubChem BioAssay (NCI)
